target: T1, Suc-AAPV-pNA; conditions: scale: relative to the substrate with the highest activity
T1 chain: AAPV
MEASURED PARAMETER: relative activity (initial increase in OD405)

PROTEIN | VALUE OBSERVED
Subtilisin Carlsberg from Bacillus licheniformis (protein) AQTVPYGIPLIKADKVQAQGFKGANVKVAVLDTGIQASHPDLNVVGGASFVAGEAYNTDGNGHGTHVAGTVAALDNTTGVLGVAPSVSLYAVKVLNSSGSGSYSGIVSGIEWATTNGMDVINMSLGGASGSTAMKQAVDNAYARGVVVVAAAGNSGSSGNTNTIGYPAKYDSVIAVGAVDSNSNRASFSSVGAELEVMAPGAGVYSTYPTNTYATLNGTSMASPHVAGAAALILSKHPNLSASQVRNRLSSTATYLGSSFYYGKGLINVEAAAQ | 0.0007
Thermostable alkaline protease BH0855 from Bacillus halodurans (protein) QTVPWGISFINTQQAHNRGIFGNGARVAVLDTGIASHPDLRIAGGASFISSEPSYHDNNGHGTHVAGTIAALNNSIGVLGVAPSADLYAVKVLDRNGSGSLASVAQGIEWAINNNMHIINMSLGSTSGSSTLELAVNRANNAGILLVGAAGNTGRQGVNYPARYSGVMAVAAVDQNGQRASFSTYGPEIEISAPGVNVNSTYTGNRYVSLSGTSMATPHVAGVAALVKSRYPSYTNNQIRQRINQTATYLGSPSLYGNGLVHAGRATQ | 0.0008
